tested on: NCI-H441; experiment: relative viability (nuclei count vs DMSO), 5 days (fraction); higher = more cells survive; settings: first compound 0.2 µM
observable: relative viability

[[record]]
compound = "CCNC(=O)c1noc(-c2cc(C(C)C)c(O)cc2O)c1-c1ccc(CN2CCOCC2)cc1 [Luminespib] + C[C@]1(O)C[C@@H](c2nc(-c3ccc4ccc(-c5ccccc5)nc4c3)c3c(N)nccn32)C1 [Linsitinib] (partner 1 µM)"
result = 0.0934

[[record]]
compound = "CN1CCN(CCOc2cc(OC3CCOCC3)c3c(Nc4c(Cl)ccc5c4OCO5)ncnc3c2)CC1 [Saracatinib] + NC(=O)Nc1cc(-c2cccc(F)c2)sc1C(=O)N[C@H]1CCCNC1 [AZD7762] (partner 0.2 µM)"
result = 1.16

[[record]]
compound = "CCNC(=O)c1noc(-c2cc(C(C)C)c(O)cc2O)c1-c1ccc(CN2CCOCC2)cc1 [Luminespib] + NC(=O)Nc1cc(-c2cccc(F)c2)sc1C(=O)N[C@H]1CCCNC1 [AZD7762] (partner 0.2 µM)"
result = 0.126

[[record]]
compound = "CCNC(=O)c1noc(-c2cc(C(C)C)c(O)cc2O)c1-c1ccc(CN2CCOCC2)cc1 [Luminespib] + O=C(c1cc(Cc2n[nH]c(=O)c3ccccc23)ccc1F)N1CCN(C(=O)C2CC2)CC1 [Olaparib] (partner 8 µM)"
result = 0.117


###

test system: NCI-H2405; assay: relative viability (nuclei count vs DMSO), 5 days (fraction); higher = more cells survive; conditions: first compound 0.8 µM
observable: relative viability

[[record]]
molecule = "Nc1cccc2c1CN(C1CCC(=O)NC1=O)C2=O (stereo not given) [Lenalidomide] + CC1(C)CCC(c2ccc(Cl)cc2)=C(CN2CCN(c3ccc(C(=O)NS(=O)(=O)c4ccc(N[C@H](CCN5CCOCC5)CSc5ccccc5)c(S(=O)(=O)C(F)(F)F)c4)cc3)CC2)C1 [Navitoclax] (partner 0.5 µM)"
numeric_result = 0.921

[[record]]
molecule = "Nc1cccc2c1CN(C1CCC(=O)NC1=O)C2=O (stereo not given) [Lenalidomide] + CS(=O)(=O)N1CCN(Cc2cc3nc(-c4cccc5[nH]ncc45)nc(N4CCOCC4)c3s2)CC1 [Pictilisib] (partner 1 µM)"
numeric_result = 0.438

[[record]]
molecule = "Nc1cccc2c1CN(C1CCC(=O)NC1=O)C2=O (stereo not given) [Lenalidomide] + CCNC(=O)c1noc(-c2cc(C(C)C)c(O)cc2O)c1-c1ccc(CN2CCOCC2)cc1 [Luminespib] (partner 0.01 µM)"
numeric_result = 0.76

[[record]]
molecule = "Nc1cccc2c1CN(C1CCC(=O)NC1=O)C2=O (stereo not given) [Lenalidomide] + CS(=O)(=O)CCNCc1ccc(-c2ccc3ncnc(Nc4ccc(OCc5cccc(F)c5)c(Cl)c4)c3c2)o1 [Lapatinib] (partner 2 µM)"
numeric_result = 0.949

[[record]]
molecule = "Nc1cccc2c1CN(C1CCC(=O)NC1=O)C2=O (stereo not given) [Lenalidomide] + COc1cccc2cc(-c3nc([C@H]4CC[C@H](C(=O)O)CC4)n4ncnc(N)c34)[nH]c12 [OSI-027] (partner 0.5 µM)"
numeric_result = 0.706


###

system: NCI-H1975; assay: relative viability (nuclei count vs DMSO), 5 days (fraction); higher = more cells survive; conditions: first compound 0.1 µM
observable: relative viability

[[record]]
molecule = "Cc1cn(-c2cc(NC(=O)c3ccc(C)c(Nc4nccc(-c5cccnc5)n4)c3)cc(C(F)(F)F)c2)cn1 [Nilotinib] + Nc1nc2[nH]cc(CCc3ccc(C(=O)N[C@@H](CCC(=O)O)C(=O)O)cc3)c2c(=O)[nH]1 [Pemetrexed] (partner 0.2 µM)"
observable = "relative viability"
numeric_result = 0.235

[[record]]
molecule = "Cc1cn(-c2cc(NC(=O)c3ccc(C)c(Nc4nccc(-c5cccnc5)n4)c3)cc(C(F)(F)F)c2)cn1 [Nilotinib] + O=C(c1cc(Cc2n[nH]c(=O)c3ccccc23)ccc1F)N1CCN(C(=O)C2CC2)CC1 [Olaparib] (partner 8 µM)"
observable = "relative viability"
numeric_result = 0.63

[[record]]
molecule = "Cc1cn(-c2cc(NC(=O)c3ccc(C)c(Nc4nccc(-c5cccnc5)n4)c3)cc(C(F)(F)F)c2)cn1 [Nilotinib] + N=C(N)NC(=N)NCCc1ccccc1 [Phenformin] (partner 250 µM)"
observable = "relative viability"
numeric_result = 0.378

[[record]]
molecule = "Cc1cn(-c2cc(NC(=O)c3ccc(C)c(Nc4nccc(-c5cccnc5)n4)c3)cc(C(F)(F)F)c2)cn1 [Nilotinib] + Cc1nc(Nc2ncc(C(=O)Nc3c(C)cccc3Cl)s2)cc(N2CCN(CCO)CC2)n1 [Dasatinib] (partner 0.075 µM)"
observable = "relative viability"
numeric_result = 0.209


###

Catalogue of relative viability values
test system: NCI-H596; test: relative viability (nuclei count vs DMSO), 5 days (fraction); higher = more cells survive; settings: first compound 20 µM
observable: relative viability

[[record]]
compound = "Cc1csc(=NC2CCCCC2)n1/N=C/c1ccc(O)c(O)c1O [MIM1] + O=C(CCCCCCC(=O)Nc1ccccc1)NO [Vorinostat] (partner 1 µM)"
numeric_result = 0.337

[[record]]
compound = "Cc1csc(=NC2CCCCC2)n1/N=C/c1ccc(O)c(O)c1O [MIM1] + CC1(C)CCC(c2ccc(Cl)cc2)=C(CN2CCN(c3ccc(C(=O)NS(=O)(=O)c4ccc(N[C@H](CCN5CCOCC5)CSc5ccccc5)c(S(=O)(=O)C(F)(F)F)c4)cc3)CC2)C1 [Navitoclax] (partner 0.5 µM)"
numeric_result = 0.7

[[record]]
compound = "Cc1csc(=NC2CCCCC2)n1/N=C/c1ccc(O)c(O)c1O [MIM1] + CS(=O)(=O)CCNCc1ccc(-c2ccc3ncnc(Nc4ccc(OCc5cccc(F)c5)c(Cl)c4)c3c2)o1 [Lapatinib] (partner 2 µM)"
numeric_result = 0.733

[[record]]
compound = "Cc1csc(=NC2CCCCC2)n1/N=C/c1ccc(O)c(O)c1O [MIM1] + CC(C)C[C@H](NC(=O)[C@H](Cc1ccccc1)NC(=O)c1cnccn1)B(O)O [Bortezomib] (partner 0.002 µM)"
numeric_result = 0.951

[[record]]
compound = "Cc1csc(=NC2CCCCC2)n1/N=C/c1ccc(O)c(O)c1O [MIM1] + CS(=O)(=O)N1CCN(Cc2cc3nc(-c4cccc5[nH]ncc45)nc(N4CCOCC4)c3s2)CC1 [Pictilisib] (partner 1 µM)"
numeric_result = 0.402

[[record]]
compound = "Cc1csc(=NC2CCCCC2)n1/N=C/c1ccc(O)c(O)c1O [MIM1] + CCNC(=O)c1noc(-c2cc(C(C)C)c(O)cc2O)c1-c1ccc(CN2CCOCC2)cc1 [Luminespib] (partner 0.01 µM)"
numeric_result = 0.486

[[record]]
compound = "Cc1csc(=NC2CCCCC2)n1/N=C/c1ccc(O)c(O)c1O [MIM1] + NC(=O)Nc1cc(-c2cccc(F)c2)sc1C(=O)N[C@H]1CCCNC1 [AZD7762] (partner 0.2 µM)"
numeric_result = 0.819


###

tested on: NCI-H2405; test: relative viability (nuclei count vs DMSO), 5 days (fraction); higher = more cells survive; conditions: first compound 2 µM
observable: relative viability

[[record]]
compound = "Cc1csc(=NC2CCCCC2)n1/N=C/c1ccc(O)c(O)c1O [MIM1] + Nc1ncn([C@H]2C[C@H](O)[C@@H](CO)O2)c(=O)n1 [Decitabine] (partner 2 µM)"
observable = "relative viability"
numeric_result = 0.771

[[record]]
compound = "Cc1csc(=NC2CCCCC2)n1/N=C/c1ccc(O)c(O)c1O [MIM1] + CC(C)C[C@H](NC(=O)[C@H](Cc1ccccc1)NC(=O)c1cnccn1)B(O)O [Bortezomib] (partner 0.002 µM)"
observable = "relative viability"
numeric_result = 0.961

[[record]]
compound = "CN1CCN(CCOc2cc(OC3CCOCC3)c3c(Nc4c(Cl)ccc5c4OCO5)ncnc3c2)CC1 [Saracatinib] + NC(=O)Nc1cc(-c2cccc(F)c2)sc1C(=O)N[C@H]1CCCNC1 [AZD7762] (partner 0.2 µM)"
observable = "relative viability"
numeric_result = 0.388

[[record]]
compound = "Cc1csc(=NC2CCCCC2)n1/N=C/c1ccc(O)c(O)c1O [MIM1] + Cc1nc(Nc2ncc(C(=O)Nc3c(C)cccc3Cl)s2)cc(N2CCN(CCO)CC2)n1 [Dasatinib] (partner 0.075 µM)"
observable = "relative viability"
numeric_result = 0.209

[[record]]
compound = "Cc1csc(=NC2CCCCC2)n1/N=C/c1ccc(O)c(O)c1O [MIM1] + C[C@]1(O)C[C@@H](c2nc(-c3ccc4ccc(-c5ccccc5)nc4c3)c3c(N)nccn32)C1 [Linsitinib] (partner 1 µM)"
observable = "relative viability"
numeric_result = 0.946


###

Catalogue of relative viability values
tested on: NCI-H1944; experiment: relative viability (nuclei count vs DMSO), 5 days (fraction); higher = more cells survive; settings: first compound 0.02 µM
observable: relative viability

[[record]]
compound = "CCNC(=O)c1noc(-c2cc(C(C)C)c(O)cc2O)c1-c1ccc(CN2CCOCC2)cc1 [Luminespib] + O=C(CCCCCCC(=O)Nc1ccccc1)NO [Vorinostat] (partner 1 µM)"
result = 0.354

[[record]]
compound = "CN1CCN(CCOc2cc(OC3CCOCC3)c3c(Nc4c(Cl)ccc5c4OCO5)ncnc3c2)CC1 [Saracatinib] + N=C(N)NC(=N)NCCc1ccccc1 [Phenformin] (partner 250 µM)"
result = 0.227

[[record]]
compound = "CCNC(=O)c1noc(-c2cc(C(C)C)c(O)cc2O)c1-c1ccc(CN2CCOCC2)cc1 [Luminespib] + CC(=O)Nc1cccc(-n2c(=O)n(C3CC3)c(=O)c3c(Nc4ccc(I)cc4F)n(C)c(=O)c(C)c32)c1 [Trametinib] (partner 0.02 µM)"
result = 0.387

